# inhibition annotations
biological target: thymidine phosphorylase (TP) (Escherichia coli, UniProt P07650); construct: purchased Sigma Aldrich, USA; host or cells: E. coli; assay: Thymidine phosphorylase inhibition assay (spectrophotometric, 290 nm); type: biochemical, E. coli; conditions: read-out: Percent Inhibition of thymidine phosphorylase, 10 μL of test compound (0.5 mM in dimethylsulfoxide) per well; <50% regarded inactive
Sequence (P07650 whole entry): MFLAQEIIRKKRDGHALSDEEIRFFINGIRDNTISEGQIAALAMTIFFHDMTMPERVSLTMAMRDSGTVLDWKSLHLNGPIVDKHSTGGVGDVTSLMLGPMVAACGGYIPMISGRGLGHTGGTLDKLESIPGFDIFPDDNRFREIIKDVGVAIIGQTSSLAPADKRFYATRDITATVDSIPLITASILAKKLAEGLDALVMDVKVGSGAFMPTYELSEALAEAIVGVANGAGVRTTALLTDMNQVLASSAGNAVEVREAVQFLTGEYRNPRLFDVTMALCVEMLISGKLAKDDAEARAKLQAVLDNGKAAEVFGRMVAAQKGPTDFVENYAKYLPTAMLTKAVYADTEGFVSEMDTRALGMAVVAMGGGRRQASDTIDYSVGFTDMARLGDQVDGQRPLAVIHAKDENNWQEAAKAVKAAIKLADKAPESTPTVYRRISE
Give a bare numeral; the unit % is implied.

The examples below pair each entry with its known result.
- COc1ccc(/C=N/NC(=O)c2ccc(O)cc2)cc1OC: 99
- N=C1CCCN1Cc1nc(O)nc(O)c1Cl [tipiracil, reference compound]: 99
- C/C(=N\NC(=O)c1ccc(O)cc1)c1ccc(O)cc1O: 30
- O=C(N/N=C/c1cccc(O)c1)c1ccc(O)cc1: 99
- C/C(=N\NC(=O)c1ccc(O)cc1)c1cc(O)ccc1O: 99.3
- O=C(N/N=C/c1ccccc1O)c1ccc(O)cc1: 99.6

Data point: O=C(N/N=C/c1cc(Cl)ccc1O)c1ccc(O)cc1 ; inhibition = 12.4

Data point: C/C(=N\NC(=O)c1ccc(O)cc1)c1c(O)cccc1O ; inhibition = 93

Data point: O=C(N/N=C/c1cccc(O)c1O)c1ccc(O)cc1 ; inhibition = 99.9

Data point: O=c1[nH]c(=O)c2cc[nH]c2[nH]1 [7-Deazaxanthine, reference compound] ; inhibition = 99
